# Target Entity: Aldehyde oxidase (Oryctolagus cuniculus)
# Method Summary: Tested for its ability to inhibit rabbit liver aldehyde oxidase catalyzed oxidation of N-methyl-nicotinamide (NMN)
pKi: −log10 of the molar value.
Metric: pKi

- Compound: "CCOP(=O)(CC=O)OCC"
  Value Reported: 3.52
- Compound: "CCOP(=O)(CCC=O)c1ccccc1 (stereo not drawn)"
  Value Reported: 4.00
- Compound: "CCOC(CCP(=O)(OCC)OCC)OCC"
  Value Reported: 3.70
